Biological target: PI3K (p110α/p85α) (Homo sapiens)
Construct: purchased Carna Biosciences 07CBS-0402A
Sequence (P42336 whole entry): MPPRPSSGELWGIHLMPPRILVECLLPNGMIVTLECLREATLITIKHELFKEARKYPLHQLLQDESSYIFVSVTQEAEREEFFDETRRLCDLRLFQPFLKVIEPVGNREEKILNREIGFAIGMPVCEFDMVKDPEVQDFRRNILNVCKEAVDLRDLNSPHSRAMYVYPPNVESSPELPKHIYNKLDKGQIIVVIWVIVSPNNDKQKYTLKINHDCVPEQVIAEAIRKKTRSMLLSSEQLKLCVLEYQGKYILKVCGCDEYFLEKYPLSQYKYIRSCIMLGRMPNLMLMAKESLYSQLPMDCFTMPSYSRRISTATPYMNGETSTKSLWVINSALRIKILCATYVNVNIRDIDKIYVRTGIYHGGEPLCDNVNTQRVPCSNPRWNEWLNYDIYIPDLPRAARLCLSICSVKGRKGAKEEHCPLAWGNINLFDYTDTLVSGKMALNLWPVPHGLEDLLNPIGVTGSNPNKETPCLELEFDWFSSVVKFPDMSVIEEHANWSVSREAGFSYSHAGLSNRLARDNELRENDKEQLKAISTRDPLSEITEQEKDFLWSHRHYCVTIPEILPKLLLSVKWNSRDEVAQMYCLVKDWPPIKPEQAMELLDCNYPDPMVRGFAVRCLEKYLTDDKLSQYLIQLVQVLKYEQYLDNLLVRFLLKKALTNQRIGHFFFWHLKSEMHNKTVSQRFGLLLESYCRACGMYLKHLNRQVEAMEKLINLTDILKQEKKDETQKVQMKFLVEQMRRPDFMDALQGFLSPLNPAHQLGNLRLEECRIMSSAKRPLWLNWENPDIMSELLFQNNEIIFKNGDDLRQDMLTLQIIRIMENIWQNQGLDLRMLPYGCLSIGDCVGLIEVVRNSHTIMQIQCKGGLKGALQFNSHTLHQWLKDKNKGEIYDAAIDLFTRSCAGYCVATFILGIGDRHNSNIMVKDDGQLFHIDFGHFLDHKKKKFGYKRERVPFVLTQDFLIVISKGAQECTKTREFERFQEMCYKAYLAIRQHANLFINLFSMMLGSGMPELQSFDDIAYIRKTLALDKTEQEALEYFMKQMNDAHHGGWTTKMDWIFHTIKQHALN
Sequence (P27986 whole entry partner): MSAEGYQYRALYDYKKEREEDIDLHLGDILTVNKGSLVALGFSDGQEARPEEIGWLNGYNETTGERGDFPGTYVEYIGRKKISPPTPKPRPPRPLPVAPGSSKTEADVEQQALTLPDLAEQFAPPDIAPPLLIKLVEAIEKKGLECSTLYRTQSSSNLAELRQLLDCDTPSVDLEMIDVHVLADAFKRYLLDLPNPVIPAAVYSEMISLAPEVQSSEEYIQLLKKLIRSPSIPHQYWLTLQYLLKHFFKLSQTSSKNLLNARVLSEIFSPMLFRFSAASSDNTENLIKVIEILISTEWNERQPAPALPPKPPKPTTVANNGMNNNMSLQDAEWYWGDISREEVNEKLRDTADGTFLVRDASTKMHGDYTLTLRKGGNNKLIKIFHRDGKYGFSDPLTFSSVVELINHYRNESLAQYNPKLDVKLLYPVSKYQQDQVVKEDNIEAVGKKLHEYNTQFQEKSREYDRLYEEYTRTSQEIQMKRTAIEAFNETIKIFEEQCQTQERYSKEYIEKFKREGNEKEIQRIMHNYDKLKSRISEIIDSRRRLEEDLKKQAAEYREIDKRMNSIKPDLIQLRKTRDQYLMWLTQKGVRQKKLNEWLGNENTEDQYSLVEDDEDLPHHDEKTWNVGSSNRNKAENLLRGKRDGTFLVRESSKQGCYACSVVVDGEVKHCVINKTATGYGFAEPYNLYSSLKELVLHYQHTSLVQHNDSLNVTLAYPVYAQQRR
Test: PI3K activity assay (ADP Hunter Plus)
Type: biochemical
Settings: PI3Kα; quantitative results; read-out: PI3K α IC50
IC50 under 90 nM gets Satisfied, anything at or over 90 nM gets Not satisfied.

Here's an entry: `c1cc(-c2cn3c4c(nc3c(N3CCOCC3)n2)CCN(Cc2ccncc2)C4)c2cn[nH]c2c1` . Is its IC50 below 90 nM?
Not satisfied

Would you kindly verify if IC50 of `Oc1cccc(-c2cn3c4c(nc3c(N3CCOCC3)n2)CCNC4)c1` is strictly less than 90 nM?
Not satisfied

Find out if reported IC50 for `COCCS(=O)(=O)N1CCc2nc3c(N4CCOCC4)nc(-c4cnc(N)nc4)cn3c2C1` is less than 90 nM
Satisfied

Find out if reported IC50 for `CC(C)CS(=O)(=O)N1CCc2nc3c(N4CCOCC4)nc(-c4cnc(N)nc4)cn3c2C1` is less than 90 nM
Not satisfied

Find out if reported IC50 for `CCCC(=O)N1CCc2nc3c(N4CCOCC4)nc(-c4cnc(N)nc4)cn3c2C1` is less than 90 nM
Not satisfied

Strictly below 90 nM: is that where IC50 of `Nc1ncc(-c2cn3c4c(nc3c(N3CCOCC3)n2)CCN(C(=O)NCc2cccc(F)c2)C4)cn1` sits?
Satisfied

Problem: For the compound `CCOC(=O)N1CCc2nc3c(N4CCOCC4)nc(-c4cnc(N)c(C(F)(F)F)c4)c(Cl)n3c2C1` , is IC50 under 90 nM?
Not satisfied

Please state whether IC50 is below 90 nM for `CCOC(=O)N1CCc2nc3c(N4CCOCC4)nc(-c4cnc(N)nc4)c(Cl)n3c2C1`
Satisfied

Is the reported IC50 for `CS(=O)(=O)c1cccc(CN2CCc3nc4c(N5CCOCC5)nc(-c5cccc6[nH]ncc56)cn4c3C2)c1` strictly below 90 nM?
Not satisfied

I wonder whether `Nc1ncc(-c2cn3c4c(nc3c(N3CCOCC3)n2)CCN(C2CCCCC2)C4)cn1` has IC50 below 90 nM. Can you tell?
Not satisfied

hey, is IC50 for `Cc1ccc(CNC(=O)N2CCc3nc4c(N5CCOCC5)nc(-c5cnc(N)nc5)cn4c3C2)cc1` lower than 90 nM or not?
Satisfied

Does the reported IC50 of `c1ccc(CN2CCc3nc4c(N5CCOCC5)nc(-c5cccc6[nH]ncc56)cn4c3C2)nc1` stay below 90 nM?
Not satisfied

Identify whether the compound `Nc1ncc(-c2cn3c4c(nc3c(N3CCOCC3)n2)CCN(Cc2ccncc2)C4)cn1` records IC50 below 90 nM.
Not satisfied

Lab note: confirm whether the reported IC50 for this compound is below 90 nM, equality not counting. compound: `Nc1ncc(-c2cn3c4c(nc3c(N3CCOCC3)n2)CCN(CC2CCCC2)C4)cn1`
Not satisfied

Hello, is IC50 of the following compound strictly smaller than 90 nM? `CCOC(=O)N1CCc2nc3c(N4CCOCC4)nc(-c4cnc5[nH]ccc5c4)c(Cl)n3c2C1`
Not satisfied

Is IC50 strictly under 90 nM for the entry `Nc1ncc(-c2cn3c4c(nc3c(N3CCOCC3)n2)CCN(C(=O)NC2CCCC2)C4)cn1` ?
Satisfied

Does `Nc1ncc(-c2cn3c4c(nc3c(N3CCOCC3)n2)CCN(Cc2ccc(OC(F)(F)F)cc2)C4)cn1` have IC50 strictly under 90 nM?
Not satisfied

Bench note: check whether `Nc1ncc(-c2cn3c4c(nc3c(N3CCOCC3)n2)CCN(C(=O)Nc2cccc(F)c2)C4)cn1` shows IC50 below 90 nM
Satisfied

Given the entry `CN(C)c1ccc(NC(=O)N2CCc3nc4c(N5CCOCC5)nc(-c5cnc(N)nc5)cn4c3C2)cc1` , would its reported IC50 be below 90 nM?
Satisfied

Is 90 nM strictly greater than the compound's reported IC50? compound: `COc1cccc(NC(=O)N2CCc3nc4c(N5CCOCC5)nc(-c5cnc(N)nc5)cn4c3C2)c1`
Satisfied

Here's an entry: `N#CCCCS(=O)(=O)N1CCc2nc3c(N4CCOCC4)nc(-c4cnc(N)nc4)cn3c2C1` . Is its IC50 below 90 nM?
Satisfied

Just wondering, is IC50 of `CC(C)CN1CCc2nc3c(N4CCOCC4)nc(-c4cnc(N)nc4)cn3c2C1` below 90 nM?
Not satisfied

# strict comparison: is reported IC50 < 90 nM? input = `Nc1ncc(-c2cn3c4c(nc3c(N3CCOCC3)n2)CCN(Cc2ccccn2)C4)cn1`
Satisfied
